- methodSummary: Volume of distribution in Sprague-Dawley rat at 1 mg/kg, iv and 4 mg/kg, po
- Type: ADME, organism-based
- assayConditions: in vivo, read-out: Vdss
assayReadout: Vd (L/kg)
// note: answer is a bare numeric in L/kg

The following compounds have reported results that may help.
{"lineNotation": "C[C@@H]1CN(C(=O)N[C@H](Cc2ccc(F)cc2)C(=O)N2CCC(C(=O)NC(C)(C)C)(C3CCCCC3)CC2)C[C@H](C)N1", "Vd, L/kg": 4.7}
{"lineNotation": "CC[C@@H]1CN(C(=O)N[C@H](Cc2ccc(F)cc2)C(=O)N2CCC(C(=O)NC(C)(C)C)(C3CCCCC3)CC2)C[C@H](CC)N1", "Vd, L/kg": 4.7}
{"lineNotation": "C[C@@H]1CN(C(=O)N[C@H](Cc2ccc(F)cc2)C(=O)N2CCC(C(=O)NC(C)(C)C)(C3CCCCC3)CC2)C[C@@H](C)N1", "Vd, L/kg": 9.2}

Attention now turns to another entry.
# compound `CC[C@@H]1CN(C(=O)N[C@H](Cc2ccc(F)cc2)C(=O)N2CCC(C(=O)NC(C)(C)C)(C3CCCCC3)CC2)C[C@@H](CC)N1` ; its Vd = 8.2

====

- measurementTarget: Melanocortin receptor 4 (Homo sapiens, UniProt P32245)
- Sequence (P32245 whole entry): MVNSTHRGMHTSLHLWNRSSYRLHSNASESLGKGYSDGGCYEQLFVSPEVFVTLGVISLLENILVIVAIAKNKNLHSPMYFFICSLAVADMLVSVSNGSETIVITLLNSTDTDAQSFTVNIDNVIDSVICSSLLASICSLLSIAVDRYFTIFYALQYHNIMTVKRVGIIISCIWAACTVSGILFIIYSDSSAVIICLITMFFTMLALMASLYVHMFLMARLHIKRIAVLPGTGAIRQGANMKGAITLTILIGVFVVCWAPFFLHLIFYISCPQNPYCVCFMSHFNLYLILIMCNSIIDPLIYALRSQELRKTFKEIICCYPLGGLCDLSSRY
- methodSummary: Agonist activity at human MC4 receptor expressed in CHO cells assessed as cAMP accumulation at 10 uM relative to alpha-MSH
- Type: functional, cell-based
So basically, if Activity comes in under 60% it's criterion met, and if it's 60% or more it's criterion not met.

Study these solved cases before continuing.
{"lineNotation": "C[C@H]1CN(C(=O)N[C@H](Cc2ccc(F)cc2)C(=O)N2CCC(C(=O)NC(C)(C)C)(C3CCCCC3)CC2)C[C@H](C)N1", "classification": "criterion met"}
{"lineNotation": "CC[C@@H]1CN(C(=O)N[C@H](Cc2ccc(F)cc2)C(=O)N2CCC(C(=O)NC(C)(C)C)(C3CCCCC3)CC2)C[C@@H](CC)N1", "classification": "criterion met"}

Problem: For the compound `C[C@@H]1CN(C(=O)N[C@H](Cc2ccc(Cl)cc2)C(=O)N2CCC(C(=O)NC(C)(C)C)(C3CCCCC3)CC2)C[C@H](C)N1` , is Activity under 60%?
criterion met

Hi there! Is Activity for `CC[C@@H]1CN(C(=O)N[C@H](Cc2ccc(F)cc2)C(=O)N2CCC(C(=O)NC(C)(C)C)(C3CCCCC3)CC2)C[C@H](CC)N1` below 60%, do you know?
criterion met

Please indicate whether the reported Activity of `C[C@@H]1CN(C(=O)N[C@H](Cc2ccc(F)cc2)C(=O)N2CCC(C(=O)NC(C)(C)C)(C3CCCCC3)CC2)C[C@@H](C)N1` is strictly below 60%.
criterion not met

Please determine if `C[C@@H]1CN(C(=O)N[C@H](Cc2ccc(F)cc2)C(=O)N2CCC(C(=O)NC(C)(C)C)(C3CCCCC3)CC2)C[C@H](C)N1C` is below 60% in terms of Activity.
criterion met

====

pEC50 values by entry
- measurementTarget: Melanocortin receptor 5 (Homo sapiens)
- Sequence (P33032 whole entry): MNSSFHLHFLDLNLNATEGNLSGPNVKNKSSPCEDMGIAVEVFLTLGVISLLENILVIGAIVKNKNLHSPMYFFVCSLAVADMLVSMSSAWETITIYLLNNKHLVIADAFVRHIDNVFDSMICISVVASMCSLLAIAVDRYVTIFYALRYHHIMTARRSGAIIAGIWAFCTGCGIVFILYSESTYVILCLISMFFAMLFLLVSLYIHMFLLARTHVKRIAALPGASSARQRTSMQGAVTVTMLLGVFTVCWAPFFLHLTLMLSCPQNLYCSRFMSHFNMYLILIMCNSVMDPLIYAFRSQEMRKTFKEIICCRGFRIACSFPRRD
- methodSummary: Agonist activity at human MC5 receptor expressed in CHO cells assessed as cAMP accumulation
As a rule, pEC50 stands for the negative log10 of the concentration, concentration in M.

For orientation, consider the following solved cases.
{"lineNotation": "C[C@@H]1CN(C(=O)N[C@H](Cc2ccc(F)cc2)C(=O)N2CCC(C(=O)NC(C)(C)C)(C3CCCCC3)CC2)C[C@@H](C)N1", "observed": 6.00}
{"lineNotation": "C[C@@H]1CN(C(=O)N[C@H](Cc2ccc(Cl)cc2)C(=O)N2CCC(C(=O)NC(C)(C)C)(C3CCCCC3)CC2)C[C@H](C)N1", "observed": 6.68}

Field pEC50 (entry `C[C@H]1CN(C(=O)N[C@H](Cc2ccc(F)cc2)C(=O)N2CCC(C(=O)NC(C)(C)C)(C3CCCCC3)CC2)C[C@H](C)N1` ) reads 5.85
